Assay: Pharmacokinetic study, oral capsule, crossover, fasted beagle dogs
Conditions: male, dog, plasma, 100 mg
PARAMETER_MEASURED: AUC
Param answer (str): number followed by unit.

**Q:** Given O=C1CCc2cc(OCCCCc3nnnn3C3CCCCC3)ccc2N1 [Cilostazol] , state its recorded AUC.
**A:** 371 ng·h/mL

---

Assay: Pharmacokinetic study, oral capsule, crossover, fasted beagle dogs
Conditions: male, dog, plasma, 100 mg
PARAMETER_MEASURED: Tmax (h)
Report only the number, with the unit h understood.

**Q:** Given "O=C1CCc2cc(OCCCCc3nnnn3C3CCCCC3)ccc2N1" , state its recorded Tmax.
**A:** 2

# credit: patent US8779146B2
